- Test system: CD31 (PECAM-1)
- Assay overview: Intestinal IR, CD31 immunohistochemistry
- Format: in vivo, mouse
- Parameters: key: + indicates significant difference from Sham treated mice; − indicates not significantly different from C57B1/6 sham treated mice; +/− indicates no significant difference from either C57B1/6 mice subjected to either Sham or IR
- Conditions used: C57Bl/6 mice subjected to IR, peptide 40 μM i.v. 5 min prior to artery occlusion
Ends that are not written are not given here.
Value kind: CD31 Deposition

Past entries and their recorded results:
INSERT INTO results (substance, value_observed) VALUES
  ('H-IHFYCKNKEKKCSYTVEAHCRDGTI-OH (cysteine pairing not given here) [peptide 296]', '−'),
  ('H-KNISFACNPGFFLNG-NH2 [peptide 100, 16, reference compound]', '+'),
  ('H-KKCSYTVEAHCRDGTIEIPSCFKEHS-OH (cysteine pairing not given here) [peptide 305, 10]', '+'),
  ('H-IPSCFKEHSSLAFWKTDASELTPC-NH2 (cysteine pairing not given here) [peptide 322, 18]', '+');

Now turn to the next substance.
Task item: Determine its reported CD31 Deposition: H-IHFYSKNKEKKSSYTVEAHSRDGTI-OH [peptide 296Cys-Ser]
Reply: −
